meta.source: ChEMBL document CHEMBL4813954

- system.name: Muscarinic acetylcholine receptor M3 (Homo sapiens, UniProt P20309)
- Sequence (P20309 whole entry): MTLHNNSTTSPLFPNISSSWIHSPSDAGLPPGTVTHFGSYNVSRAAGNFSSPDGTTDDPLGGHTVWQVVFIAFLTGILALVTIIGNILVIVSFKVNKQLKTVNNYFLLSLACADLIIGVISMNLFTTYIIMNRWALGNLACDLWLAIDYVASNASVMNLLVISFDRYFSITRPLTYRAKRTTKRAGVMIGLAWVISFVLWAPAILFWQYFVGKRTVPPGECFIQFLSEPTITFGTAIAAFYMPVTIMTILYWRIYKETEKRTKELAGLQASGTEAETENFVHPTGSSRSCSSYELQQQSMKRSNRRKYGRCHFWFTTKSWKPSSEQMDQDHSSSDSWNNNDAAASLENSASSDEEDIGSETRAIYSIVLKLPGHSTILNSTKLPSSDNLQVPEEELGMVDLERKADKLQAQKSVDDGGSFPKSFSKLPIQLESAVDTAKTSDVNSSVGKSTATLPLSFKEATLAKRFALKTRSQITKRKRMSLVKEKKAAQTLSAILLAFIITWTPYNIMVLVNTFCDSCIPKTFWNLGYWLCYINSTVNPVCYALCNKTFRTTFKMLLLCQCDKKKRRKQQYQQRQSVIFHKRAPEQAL
- assay.overview: Displacement of [3H]-NMS from human muscarinic M3 receptor expressed in CHO cell membranes assessed as inhibition constant by radioligand competition analysis
- Set-up: species or system Cell membrane
pKi: −log10 of the molar value.
readout.type: pKi

smiles.notation	pKi
CCC(=O)NCCNC(=O)CCc1cn(CCCCC2CCN(CC(=O)N3c4ccccc4NC(=O)c4ccccc43)CC2)cn1	7.20

a. CC(=O)N[C@@H](CCCCN)C(=O)N[C@@H](CCCNC(=N)N)C(=O)NCCCCC1CCN(CC(=O)N2c3ccccc3NC(=O)c3ccccc32)CC1
b. CC(=O)N[C@@H](Cc1c[nH]c2ccccc12)C(=O)N[C@@H](C)C(=O)N[C@@H](Cc1ccc(O)cc1)C(=O)NCCCCC1CCN(CC(=O)N2c3ccccc3NC(=O)c3ccccc32)CC1
Compare a and b and name the one whose reported pKi is smaller. Give the label under which the chosen entry appears.
a
(a: 5.20, b: 5.90)
